Molecular target: T1, recombinant cynomolgus C1r2s2 tetramer (cynomolgus monkey, limits assumed)
T1 construct: also called cyC1r2s2; monkey C1r2s2
T1 chain 1: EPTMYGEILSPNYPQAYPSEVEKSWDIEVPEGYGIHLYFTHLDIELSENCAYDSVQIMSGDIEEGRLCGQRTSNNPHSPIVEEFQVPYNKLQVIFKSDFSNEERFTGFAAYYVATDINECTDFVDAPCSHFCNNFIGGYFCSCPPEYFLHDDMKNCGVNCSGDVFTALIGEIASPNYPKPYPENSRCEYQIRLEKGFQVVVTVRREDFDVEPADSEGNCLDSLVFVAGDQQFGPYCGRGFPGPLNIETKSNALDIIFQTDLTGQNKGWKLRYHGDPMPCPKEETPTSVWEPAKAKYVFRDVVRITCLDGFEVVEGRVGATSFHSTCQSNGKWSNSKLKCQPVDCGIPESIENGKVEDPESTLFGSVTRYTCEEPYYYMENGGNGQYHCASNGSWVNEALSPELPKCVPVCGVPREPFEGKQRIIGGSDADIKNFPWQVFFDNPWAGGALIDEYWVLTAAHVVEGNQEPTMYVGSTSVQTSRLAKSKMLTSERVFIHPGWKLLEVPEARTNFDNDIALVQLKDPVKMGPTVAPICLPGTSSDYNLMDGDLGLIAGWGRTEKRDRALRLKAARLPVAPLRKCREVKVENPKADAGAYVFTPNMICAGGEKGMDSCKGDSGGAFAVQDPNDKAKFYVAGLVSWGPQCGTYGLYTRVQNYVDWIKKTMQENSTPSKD
T1 chain 2: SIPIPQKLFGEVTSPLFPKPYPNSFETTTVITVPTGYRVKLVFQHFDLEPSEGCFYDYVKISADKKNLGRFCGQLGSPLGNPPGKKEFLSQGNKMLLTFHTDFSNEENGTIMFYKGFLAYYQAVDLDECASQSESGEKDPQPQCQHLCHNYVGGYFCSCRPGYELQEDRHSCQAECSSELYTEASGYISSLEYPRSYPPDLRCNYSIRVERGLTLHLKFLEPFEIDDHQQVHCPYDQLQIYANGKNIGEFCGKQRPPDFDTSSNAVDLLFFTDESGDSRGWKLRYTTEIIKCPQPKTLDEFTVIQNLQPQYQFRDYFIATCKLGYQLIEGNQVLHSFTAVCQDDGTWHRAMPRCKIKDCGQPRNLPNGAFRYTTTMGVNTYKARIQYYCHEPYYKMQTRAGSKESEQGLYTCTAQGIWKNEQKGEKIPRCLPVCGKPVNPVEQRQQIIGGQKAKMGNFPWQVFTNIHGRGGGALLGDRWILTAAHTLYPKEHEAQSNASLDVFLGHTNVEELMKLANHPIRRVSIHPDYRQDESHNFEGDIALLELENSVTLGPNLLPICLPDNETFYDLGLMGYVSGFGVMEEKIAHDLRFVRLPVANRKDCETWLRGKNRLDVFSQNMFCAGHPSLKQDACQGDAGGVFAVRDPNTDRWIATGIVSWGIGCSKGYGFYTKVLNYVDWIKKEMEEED
Test: SPR (Biacore T200), 37 C, pH 6.0; cyC1r2s2 captured by IPN009, antibody as analyte
readout_type: Kd
Please report the result as a number followed by the unit.

Challenge: Return reported Kd; argument: COS0637pHv3-TT91R (antibody, human IgG1, V domains shown, Modified human IgG1 constant region TT91R, light chain constant region SK1) VH: QVQLVESGGGVVQPGRSLRLSCAASGFTFSAYAMNWIRQPPGKGLEWIGLIYGSGHEFYASWAEERVTISVDTSKNQFSLKLSSVTAADTAVYYCARGRSKNYVSGFHLWGQGTLVTVSS VL: DIQMTQSPSSLSASVGDRVTITCQASQILHDKKNLAWYQQKPGQPPKLLIYQASQLESGVPSRFSGSGSGTDFTLTISSLQPEDFATYYCHGEFSYESADLNQFGQGTKVEIKR
Response given: 22 nM
